Hello, the source for this data is paper PMC6832952, in case you need it.

# target_or_test_system: P-glycoprotein 1 (P-gp) (Homo sapiens)
# Construct: its P-gp overexpressing variant (SW1573/PGP); endogenous in cells; host or cells: SW1573 and SW1573/PGP (SW1573/Pgp) human non-small cell lung cancer cells, provided by Dr. G. J. Peters (Amsterdam)
# Sequence (P08183 whole entry): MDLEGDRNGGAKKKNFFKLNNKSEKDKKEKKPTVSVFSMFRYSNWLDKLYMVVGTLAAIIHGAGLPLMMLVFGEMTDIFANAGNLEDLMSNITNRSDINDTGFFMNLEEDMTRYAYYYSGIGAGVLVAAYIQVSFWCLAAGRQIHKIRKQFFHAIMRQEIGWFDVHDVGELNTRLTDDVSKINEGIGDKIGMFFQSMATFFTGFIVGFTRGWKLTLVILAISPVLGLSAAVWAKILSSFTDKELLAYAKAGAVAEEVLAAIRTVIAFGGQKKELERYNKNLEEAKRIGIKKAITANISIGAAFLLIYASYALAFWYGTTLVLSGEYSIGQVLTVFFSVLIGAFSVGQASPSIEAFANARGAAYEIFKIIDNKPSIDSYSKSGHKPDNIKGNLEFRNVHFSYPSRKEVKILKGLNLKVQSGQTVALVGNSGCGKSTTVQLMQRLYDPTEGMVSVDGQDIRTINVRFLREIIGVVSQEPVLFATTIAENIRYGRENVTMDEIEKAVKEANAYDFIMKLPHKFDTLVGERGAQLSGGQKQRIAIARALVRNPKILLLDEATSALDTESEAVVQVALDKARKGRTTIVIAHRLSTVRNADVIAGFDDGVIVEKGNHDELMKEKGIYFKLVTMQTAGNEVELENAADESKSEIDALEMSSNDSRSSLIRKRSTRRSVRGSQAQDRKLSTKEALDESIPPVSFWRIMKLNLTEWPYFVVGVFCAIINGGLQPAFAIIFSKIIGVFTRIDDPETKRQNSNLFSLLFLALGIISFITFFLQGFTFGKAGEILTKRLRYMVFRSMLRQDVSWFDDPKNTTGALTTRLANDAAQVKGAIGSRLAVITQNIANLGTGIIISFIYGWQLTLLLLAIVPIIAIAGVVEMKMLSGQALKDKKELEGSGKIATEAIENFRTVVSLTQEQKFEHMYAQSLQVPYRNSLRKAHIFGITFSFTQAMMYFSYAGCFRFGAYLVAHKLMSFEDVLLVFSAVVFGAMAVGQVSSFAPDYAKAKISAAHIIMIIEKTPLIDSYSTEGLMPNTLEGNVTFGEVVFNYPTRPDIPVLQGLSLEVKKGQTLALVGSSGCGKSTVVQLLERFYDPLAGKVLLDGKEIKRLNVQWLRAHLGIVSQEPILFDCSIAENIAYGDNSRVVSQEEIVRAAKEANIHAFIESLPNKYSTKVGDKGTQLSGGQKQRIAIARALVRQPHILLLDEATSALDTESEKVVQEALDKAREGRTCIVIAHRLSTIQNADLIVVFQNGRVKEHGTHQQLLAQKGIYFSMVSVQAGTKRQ
# experiment_summary: P-glycoprotein assay (SW1573/PGP vs SW1573, resistance factor)
# Type: cell-based
# condition_label: ratio between GI50 values in SW1573/PGP and SW1573 cells, with 10 µM verapamil
quantity_measured: Rf w Verapamil
Reply: number alone, nothing else.

A selection of reference data follows.
>  <molecule>
CC[C@]1(O)C[C@@H]2CN(CCc3c([nH]c4ccccc34)[C@@](C(=O)OC)(c3cc4c(cc3OC)N(C)[C@H]3[C@@](O)(C(=O)OC)[C@H](OC(C)=O)[C@]5(CC)C=CCN6CC[C@]43[C@@H]65)C2)C1 [VB, vinblastine, reference compound]

>  <target_or_test_system>
P-glycoprotein 1 (P-gp) (Homo sapiens)

>  <measured_result>
1.3

$$$$
>  <molecule>
CC1=C2C(CC3C4CC=C5C[C@@H](O)CC[C@]5(C)C4CC[C@]23C)NC(=S)N1 (stereo partly shown) [Compound 7c]

>  <target_or_test_system>
P-glycoprotein 1 (P-gp) (Homo sapiens)

>  <measured_result>
1.1

$$$$
>  <molecule>
CC1=C2C(CC3C4CC=C5C[C@@H](O)CC[C@]5(C)C4CC[C@]23C)NC(=O)N1 (stereo partly shown) [Compound 7b]

>  <target_or_test_system>
P-glycoprotein 1 (P-gp) (Homo sapiens)

>  <measured_result>
1.4

$$$$

Okay, now this molecule:
Identify measured Rf w Verapamil corresponding to C[C@]12CCC3C(CC=C4C[C@@H](O)CC[C@@]43C)C1CCC2C1=CC(c2ccccc2)NC(=S)N1 (stereo partly shown) [Compound 3c]
1.8
